test: NFAT Signaling Pathway (AID 444); conditions: Jurkat NFAT-bla M1, carbachol, beta-lactamase ratio, 5 h; at 7.69 µM (top of the series) unless noted;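 note: carbachol stimulus at about its EC50 of 1 µM final; % is set by controls: 0 for no effect and ±100 for the full control effect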
Records with an inconclusive call do not appear. The source made the active and inactive calls. Calls come from the whole dose curve; as a rule, active = well fitted curve in either direction with a large enough effect (not every such curve was filed as active); inconclusive = small, poorly fitted or top-dose-only effect, or another doubt; inactive = flat fitted curve, though single readings scatter.
Classes used: y for active, n for inactive

Smi: CS(=O)(=O)Nc1cccc(-c2cc(NCc3ccccc3)ncn2)c1
Assigned Class: n

Smi: CN(C)c1ccc(-c2ccc3ncnc(NC4CC4)c3c2)cc1
Assigned Class: n

Smi: C[C@H](NCCc1ccc(O)cc1)[C@@H](O)c1ccc(O)cc1
Assigned Class: n

Smi: O=C(c1ccncc1)N1CCC[C@@]2(CCN(C(c3ccccc3)c3ccccc3)C2)C1
Assigned Class: n

Smi: CS(=O)(=O)N1CCC2(CC1)CN(Cc1ccccc1)C2
Assigned Class: n

Smi: O=C(c1ccncc1)N1CCC[C@@]2(CCN(c3ccncc3)C2)C1
Assigned Class: n

Smi: COCCn1c(=O)c(-c2ccc(OC)cc2)nc2cnc(N3CCOCC3)nc21
Assigned Class: n

Smi: O=c1c(CCc2ccccc2)nc2cncnc2n1-c1ccccc1
Assigned Class: n

Smi: CN1CCN(c2ncc3nc(-c4cccc(C#N)c4)c(=O)n(C)c3n2)CC1
Assigned Class: n

Smi: c1ccc2c(N3CCOCC3)nc(-c3ccoc3)nc2c1
Assigned Class: n

Smi: CCNc1ncc2nc(-c3cc(F)cc(F)c3)c(=O)n(CCc3ccccc3)c2n1
Assigned Class: y

Smi: COCCn1c(=O)c(-c2cn(C)c3ccccc23)nc2cncnc21
Assigned Class: n

Smi: CN1CCN(c2ncc3nc(-c4ccc(F)cc4)c(=O)n(C4CC4)c3n2)CC1
Assigned Class: n

Smi: c1ccc(Nc2ncnc3ccc(-c4ccoc4)cc23)cc1
Assigned Class: n

Smi: COC(=O)N1CCC[C@@]2(CCN(C(=O)NC(C)C)C2)C1
Assigned Class: n

====

molecular target: Cytochrome P450 1A2 (Homo sapiens); assay: p450-cyp1a2 (AID 410); conditions: recombinant CYP1A2, luciferin-ME demethylation, luminescence; series mostly up to 57 µM; note: potency is the fitted concentration of half-maximal effect
Inconclusive results are not listed. The source made the active and inactive calls. Calls come from the whole dose curve.
# reported Potency; entries follow

Smi: CS(=O)(=O)Nc1cccc(-c2cncnc2Nc2ccccc2)c1
Potency: 5.01 µM (active)
--
Smi: CCNc1ncc2nc(CCc3ccccc3)c(=O)n(Cc3ccc(F)cc3)c2n1
Potency: 3.16 µM (active)
--
Smi: c1ccc(CNc2ccnc(-c3cccnc3)n2)cc1
Potency: 0.251 µM (active)
--
Smi: COc1ccccc1CNc1ccnc(-c2ccc(N(C)C)cc2)n1
Potency: 0.794 µM (active)
--
Smi: O=c1c(-c2cccc(Cl)c2)nc2cncnc2n1C1CC1
Potency: 0.631 µM (active)
--
Smi: COc1ccc(CNc2ccnc(-c3ccccc3OC)n2)c(OC)c1
Potency: 5.01 µM (active)
--
Smi: COCCn1c(=O)c(-c2cccs2)nc2cncnc21
Potency: 3.16 µM (active)
--
Smi: Cc1ccccc1-c1cc(NCc2cccnc2)ncn1
Potency: 3.98 µM (active)
--
Smi: c1ccc(CNc2cc(-c3ccoc3)ncn2)cc1
Potency: 25.1 µM (active)

====

target: Cytochrome P450 3A4 (Homo sapiens) (UniProt P08684); assay: qHTS Assay for Inhibitors and Substrates of Cytochrome P450 3A4 (AID 884); conditions: recombinant CYP3A4, Luciferin-PPXE luminescence; series mostly up to 57.1 µM; note: nearly all actives have a fitted effect of over 50% in size
Sequence (P08684 whole entry, looked up): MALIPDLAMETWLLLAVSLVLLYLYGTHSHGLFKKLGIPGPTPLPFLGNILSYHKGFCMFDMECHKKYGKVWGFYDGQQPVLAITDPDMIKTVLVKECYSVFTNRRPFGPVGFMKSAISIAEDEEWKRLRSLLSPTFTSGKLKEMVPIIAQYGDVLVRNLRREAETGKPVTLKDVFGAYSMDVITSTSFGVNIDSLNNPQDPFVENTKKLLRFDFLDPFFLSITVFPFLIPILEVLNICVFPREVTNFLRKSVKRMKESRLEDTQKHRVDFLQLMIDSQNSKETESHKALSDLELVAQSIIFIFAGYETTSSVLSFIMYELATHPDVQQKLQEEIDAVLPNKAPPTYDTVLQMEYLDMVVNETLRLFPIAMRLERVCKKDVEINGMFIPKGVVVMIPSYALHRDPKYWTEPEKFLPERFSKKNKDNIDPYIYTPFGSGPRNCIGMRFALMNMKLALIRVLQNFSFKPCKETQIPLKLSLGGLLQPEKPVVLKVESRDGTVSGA
Inconclusive results are not listed. The source made the active and inactive calls. Calls come from the whole dose curve; as a rule, active = well fitted inhibition curve with a large enough effect; inconclusive = small, poorly fitted or top-dose-only effect; inactive = no such curve, though single readings can be large or run the other way.
Classes used: active, inactive

Smi: COc1ccc2[nH]cc(CCNc3nc(-c4ccc(C(=O)N(C)C)cc4)nc4ccccc34)c2c1
Assigned Class: active
//
Smi: COc1ccc(CNc2nc(-c3cccc(C#N)c3)nc3ccccc23)c(OC)c1
Assigned Class: active
//
Smi: C=C(C)[C@H]1CC=C(C)C(=O)C1
Assigned Class: inactive
//
Smi: Cc1cccc(CNc2cc(-c3ccc(N(C)C)cc3)ncn2)c1
Assigned Class: active
//
Smi: COc1ccccc1CNc1ncnc2ccc(-c3cccc(C#N)c3)cc12
Assigned Class: active
//
Smi: c1ccc(C(c2ccccc2)N2CC3(CCNCC3)C2)cc1
Assigned Class: inactive
//
Smi: CNc1ncncc1-c1ccccc1C(F)(F)F
Assigned Class: active
//
Smi: Cc1noc(C)c1C(=O)N1CCC[C@@]2(CCN(Cc3ccc(C#N)cc3)C2)C1
Assigned Class: inactive
//
Smi: COc1ccccc1CNc1ccnc(-c2cccc(C#N)c2)n1
Assigned Class: active
//
Smi: Cc1cnc(CNc2nc(-c3ccc4c(c3)OCO4)nc3ccccc23)cn1
Assigned Class: active
//
Smi: CC(=O)[C@@H]1CC[C@@H]2[C@@H]3CCC4=CC(=O)CC[C@@]4(C)[C@H]3CC[C@]21C
Assigned Class: inactive
//
Smi: Cc1ccccc1-c1nc(-n2ccnc2)c2ccccc2n1
Assigned Class: active
//
Smi: Cc1cnc(CNc2ncncc2-c2cccc(NS(C)(=O)=O)c2)cn1
Assigned Class: active
//
Smi: CN1CCCC2(CCN(C(=O)c3cccc(F)c3)CC2)C1
Assigned Class: inactive
//
Smi: COc1cccc(-c2cc(NCc3cccnc3)ncn2)c1
Assigned Class: active
//
Smi: CN(C)C(=O)c1ccc(-c2cncnc2NCc2ccccc2)cc1
Assigned Class: active

====

target: Ubiquitin carboxyl-terminal hydrolase 1 (Homo sapiens); experiment: Inhibitors of USP1/UAF1: Pilot qHTS (AID 504865); details: purified USP1/UAF1, Ub-rhodamine cleavage fluorescence; series mostly up to 54.9 µM; note: nearly all actives have a fitted effect of over 35% in size
Results filed as inconclusive are left out. Calls of active or inactive are those of the source. The call rests on the fitted dose curve; in most records, active means well fitted inhibition curve with a large enough effect; inconclusive means small, poorly fitted or top-dose-only effect; inactive means flat fitted curve, though single readings scatter.
Outcomes: active, inactive

Smi: CN(Cc1ccco1)c1cc(-c2cccnc2)ncn1
Assigned Class: inactive
--
Smi: COc1cccc(Cn2c(=O)c(-c3ccccc3)nc3cnc(N4CCN(C)CC4)nc32)c1
Assigned Class: inactive
--
Smi: CN(C)C(=O)c1ccc(-c2nccc(NCc3ccccc3)n2)cc1
Assigned Class: inactive
--
Smi: O=c1c(-c2ccc(Cl)cc2)nc2cnc(N3CCOCC3)nc2n1CCc1ccccc1
Assigned Class: inactive
--
Smi: Cc1cnc(CNc2ccnc(-c3ccoc3)n2)cn1
Assigned Class: inactive
--
Smi: COCCn1c(=O)c(-c2cn(C)c3ccccc23)nc2cnc(OCc3ccccc3)nc21
Assigned Class: inactive
--
Smi: COc1ccccc1-c1ccc2ncnc(NCCN3CCOCC3)c2c1
Assigned Class: inactive
--
Smi: COc1cccc(Cn2c(=O)c(CCc3ccccc3)nc3cnc(N4CCOCC4)nc32)c1
Assigned Class: inactive
--
Smi: COc1ccc2[nH]cc(CCNc3ncncc3-c3ccc(C(=O)N(C)C)cc3)c2c1
Assigned Class: inactive
--
Smi: Cc1cccc(C)c1OC[C@H](C)N
Assigned Class: inactive
--
Smi: Cc1cnc(CNc2cc(-c3ccccc3CN(C)C)ncn2)cn1
Assigned Class: inactive
--
Smi: Cc1nc2cncnc2n(Cc2ccccc2Cl)c1=O
Assigned Class: inactive
--
Smi: COc1cccc(-c2cc(NCc3ccccc3)ncn2)c1
Assigned Class: inactive
--
Smi: COS(C)(=O)=O
Assigned Class: inactive
--
Smi: Cc1ccccc1-c1cncnc1Nc1ccccc1
Assigned Class: inactive
--
Smi: CCNc1ncc2nc(-c3cc(F)cc(F)c3)c(=O)n(CCC#N)c2n1
Assigned Class: inactive
--
Smi: O=C(O)c1cc(O)c2c(c1)C(=O)c1cc(O)cc(O)c1C2=O
Assigned Class: active
--
Smi: CN(Cc1ccco1)c1ncnc2ccc(-c3ccccc3C#N)cc12
Assigned Class: inactive
--
Smi: FC(F)(F)c1ccccc1-c1ccc2ncnc(NCCN3CCOCC3)c2c1
Assigned Class: inactive
--
Smi: COc1ccc(Oc2ncc3nc(-c4cccc(C#N)c4)c(=O)n(C)c3n2)cc1
Assigned Class: inactive

====

test: qHTS Assay for Lipid Storage Modulators (AID 1519); conditions: Drosophila S3 cells, BODIPY lipid droplet/cell ratio, laser cytometry; measured here: lipid channel max response; cells loaded with oleic acid
Inconclusive results are not listed.
Endpoint Name: max response (%)

Compound: COc1ccccc1CN1CCC2(CC1)CCN(C(=O)c1ccco1)CC2
Numeric Readout: 7.5
--
Compound: Clc1ccccc1-c1ccc2ncnc(NC3CCNCC3)c2c1
Numeric Readout: 1.92
--
Compound: CN(C)[C@@H]1C(=O)C(C(N)=O)=C(O)[C@]2(O)C(=O)C3=C(O)c4c(O)ccc(Cl)c4[C@H](O)[C@H]3C[C@@H]12
Numeric Readout: 8.96
--
Compound: O=C(Nc1cccc(F)c1)N1CC2(CCN(C(=O)c3cnccn3)CC2)C1
Numeric Readout: 20.5
--
Compound: CN(C)C(=O)c1ccc(-c2nc(NCc3ccccc3)c3ccccc3n2)cc1
Numeric Readout: 16.5
--
Compound: COc1ccccc1CNc1ncnc2ccc(-c3ccccc3C#N)cc12
Numeric Readout: 14.7
--
Compound: COc1ccccc1CN1CCC2(CC1)CCN(C(=O)c1csnn1)CC2
Numeric Readout: 24.4
--
Compound: CC1=CC2C(CC1=O)C(C)=CCC2C(C)C (centres undefined)
Numeric Readout: 5.28
--
Compound: O=C(c1cc(C(F)(F)F)cc(C(F)(F)F)c1)N1CCC2(CCCN(c3ccccc3)C2)CC1
Numeric Readout: -14.9
--
Compound: CN1CC[C@@]2(CCCN(C(=O)c3cc(C(F)(F)F)cc(C(F)(F)F)c3)C2)C1
Numeric Readout: 2.81
--
Compound: Cn1cccc1C(=O)N1CCC2(CC1)CN(c1ccccn1)C2
Numeric Readout: 13.8
--
Compound: O=C(Nc1cccc(F)c1)N1CC[C@@]2(CCCN(C(=O)c3csnn3)C2)C1
Numeric Readout: 18.5
--
Compound: COc1cccc(-c2ccc3ncnc(NCCc4c[nH]c5ccc(OC)cc45)c3c2)c1
Numeric Readout: -27.9
--
Compound: Cc1nc2cnc(N3CCN(C)CC3)nc2n(C[C@H]2CCCO2)c1=O
Numeric Readout: 4.31
--
Compound: COC(=O)N1CCC2(CCCN(C(=O)Nc3cccc(C#N)c3)C2)CC1
Numeric Readout: 23.7
--
Compound: CCNc1ncc2nc(-c3ccc(OC)cc3)c(=O)n(Cc3cccc(OC)c3)c2n1
Numeric Readout: -29.7
--
Compound: C=CC(C1=CC(=O)C(OC)=CC1=O)c1ccccc1 (centres undefined)
Numeric Readout: -12.3
--
Compound: CC(=O)N1CCC[C@@]2(CCN(C(=O)Nc3cccc(C#N)c3)C2)C1
Numeric Readout: -0.637
--
Compound: COc1ccc2[nH]cc(CCNc3ncncc3-c3ccccc3CN(C)C)c2c1
Numeric Readout: 4.99
